Attribution: patent US9205091B2

Test system: H322/CRL5806
Assay: MTT proliferation assay, JS-K 48 h (Example 3)
Format: cell-based, human
Conditions: 10 concentrations 50 nM to 50 μM
pIC50: −log10 of the molar value.
REPORTED ENDPOINT: pIC50

>>> print(df.to_string())
                           structure_string  reported_endpoint  result
0  CCOC(=O)N1CCN(/[N+]([O-])=N/Oc2ccc([N+](=O)[O-])cc2[N+](=O)[O-])CC1              pIC50    5.06

---

Test system: H441/HTB174
Test: MTT proliferation assay, JS-K 48 h (Example 3)
Type: cell-based, human
Details: 10 concentrations 50 nM to 50 μM
REPORTED ENDPOINT: IC50 (nM)

>>> df
                                   compound  result
0  CCOC(=O)N1CCN(/[N+]([O-])=N/Oc2ccc([N+](=O)[O-])cc2[N+](=O)[O-])CC1 [Compound 1]    1010

---

Tested on: H1792/CRL5895
Assay: MTT proliferation assay, JS-K 48 h (Example 3)
Format: cell-based, human
Conditions: 10 concentrations 50 nM to 50 μM
REPORTED ENDPOINT: IC50

>>> print(df.to_string())
                                   molecule  reported_endpoint   result
0  CCOC(=O)N1CCN(/[N+]([O-])=N/Oc2ccc([N+](=O)[O-])cc2[N+](=O)[O-])CC1 [Compound 1]               IC50  9.08 µM

---

Test system: H2122
Experiment: CellTiter 96 MTT cell proliferation assay (Example 9)
Format: cell-based, human
Method: Cell lines derived from human non-small cell lung cancers are obtained from American Type Culture Collection (ATCC, Manassas, Va.), and are designated by their NCI numbers. […] For proliferation assays cells are seeded at 2×10^4/well in 96-well plates, allowed to adhere for 24 hrs, and then are treated with the drug or DMSO as a control for 48 hours. […] IC50 values are calculated using Sigma Plot software (Systat Software).
Listing of entries alongside the reported IC50.
REPORTED ENDPOINT: IC50 (µM)

>>> print(df.to_string())
                                   compound  reported_endpoint  result
0  CCOC(=O)N1CCN(/[N+]([O-])=N/Oc2cc(C)c([N+](=O)[O-])cc2[N+](=O)[O-])CC1 [Compound 6]               IC50       7
1  CCOC(=O)N1CCCN(/[N+]([O-])=N/Oc2cc(OC)c([N+](=O)[O-])cc2[N+](=O)[O-])CC1 [Compound 11]               IC50      10
2  CCOC(=O)N1CCN(/[N+]([O-])=N/Oc2ccc([N+](=O)[O-])cc2[N+](=O)[O-])CC1 [Compound 1]               IC50    3.17
3  CCOC(=O)N1CCCN(/[N+]([O-])=N/Oc2cc(C)c([N+](=O)[O-])cc2[N+](=O)[O-])CC1 [Compound 7]               IC50      10
4  CCOC(=O)N1CCN(/[N+]([O-])=N/Oc2cc(OC)c([N+](=O)[O-])cc2[N+](=O)[O-])CC1 [Compound 9]               IC50    5.78
